Reference source for all entries: patent US20260216326A1

Below, each entry is listed alongside its reported Kd.
# TESTED_SYSTEM: T1, human TL1A (Fitzgerald #30R-AT070) (human, UniProt O95150 72-251, limits assumed)
# T1 construct: Coated on the ELISA plate at 1 ug/mL; also called TNFSF15
# T1 sequence (looked up): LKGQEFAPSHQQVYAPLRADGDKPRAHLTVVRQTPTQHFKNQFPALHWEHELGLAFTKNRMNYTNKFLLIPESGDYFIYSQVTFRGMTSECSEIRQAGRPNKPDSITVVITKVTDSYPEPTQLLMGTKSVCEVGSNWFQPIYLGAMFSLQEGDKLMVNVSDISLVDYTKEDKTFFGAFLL
# EXPERIMENTAL_PROTOCOL: ELISA titration, coated human TL1A, culture supernatant
Please report the result as a number followed by the unit.

A43 (antibody, human IgG1, V domains shown, human IgG1/kappa (pFuse vectors), culture supernatant) VH: QVQLVQSGAEVKKPGASVKVSCKASGFDIQDTYMHWVKQRPGQGLEWIGRIDPASGHTKYDPKFQVRATITRDTSTSTAYLELSSLRSEDTAVYYCARSGGLPDVWGQGTTVTVSS VL: EIVLTQSPGTLSASPGERATMSCRASSSVSYMYWYQQKPGQAPRPWIYATSNLASGVPDRFSGSGSGTDYTLTISRVEPEDFAVYYCQQWSGNPRTFGGGTKLEIK
0.051 nM
A140 (antibody, human IgG1, V domains shown, human IgG1/kappa (pFuse vectors), culture supernatant) VH: QVQLVQSGAEVKKPGASVKVSCKASGFDIQDTYMHWVRQRPGQGLEWMGRIDPASGHTKYDPKFQVRVTITTDTSTSTAYLELSSLRSEDTAVYYCARSGGLPDVWGQGTTVTVSS VL: EIVLTQSPGTLSLSPGERATLSCRASSSVSYMYWYQQKPGQAPRLLIYATSNLASGIPDRFSGSGSGTDFTLTISRLEPEDFAVYYCQQWEGNPRTFGGGTKLEIK
0.073 nM
A91 (antibody, human IgG1, V domains shown, human IgG1/kappa (pFuse vectors), culture supernatant) VH: QVQLVQSGAEVKKPGASVKVSCKASGFDIQDTYMHWVRQAPGQGLEWMGRIEPASGHIKYDPKFQGRVTMTRDTSTSTAYMELSSLRSEDTAVYYCARSGGLPDWWGQGTTVTVSS VL: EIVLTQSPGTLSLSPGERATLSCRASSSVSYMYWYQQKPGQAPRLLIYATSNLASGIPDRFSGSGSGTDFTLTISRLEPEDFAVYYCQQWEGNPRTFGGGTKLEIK
0.132 nM
A103 (antibody, human IgG1, V domains shown, human IgG1/kappa (pFuse vectors), culture supernatant) VH: QVQLVQSGAEVKKPGASVKVSCKASGFDIQDTYMHWVKQRPGQGLEWIGRIDPASGHTKYDPKFQVRVTITRDTSTSTAYLELSSLRSEDTAVYYCARSGGLPDVWGQGTTVTVSS VL: EIVLTQSPGTLSLSPGERATLSCRASSSVSYMYWYQQKPGQAPRLLIYATSNLASGIPDRFSGSGSGTDFTLTISRLEPEDFAVYYCQQWKGNPRTFGGGTKLEIK
0.107 nM

Turning now to a further record.
Q. // lookup Kd for A46 (antibody, human IgG1, V domains shown, human IgG1/kappa (pFuse vectors), culture supernatant) VH: QVQLVQSGAEVKKPGASVKVSCKASGFDIQDTYMHWVKQRPGQGLEWIGRIDPASGHTKYDPKFQVRATMTRDTSTSTAYLELSSLRSEDTAVYYCARSGGLPDVWGQGTTVTVSS VL: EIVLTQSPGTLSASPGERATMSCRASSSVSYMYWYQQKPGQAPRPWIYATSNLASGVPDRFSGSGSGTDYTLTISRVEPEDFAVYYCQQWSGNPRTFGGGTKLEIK
A. 0.063 nM
